assay: amyloid nucleation score (Sup35N fusion, yeast selection) (log enrichment); library NNK3; higher = more nucleation; inactive = no reads after selection;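 note: zero at mode of non-aggregating sequences after 7 days selection at 30°C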
value_type: amyloid nucleation score

input_sequence=LSWRTPISAMFDSWACGGGR value_type="amyloid nucleation score" measured_value=inactive
input_sequence=FELFKKGRSI value_type="amyloid nucleation score" measured_value=0.898
input_sequence=KSVQKMAWTVRCELYLHTG value_type="amyloid nucleation score" measured_value=inactive
input_sequence=CIDSYLMYVFVAQQPGN value_type="amyloid nucleation score" measured_value=inactive

Record request: amyloid nucleation score value, item GPPAEASHKLWPASPRDRCP
inactive

And for NGSVSVKSLIFLDDCCSSWA ?
inactive

And for VNLEDGSGDSCKDNCNGERF ?
-0.821

And for GVGVMLSYKGIFMHLSFVGE ?
inactive

And for FYSSACVRPVVRYCCVMCDS ?
inactive

---

assay: amyloid nucleation score (Sup35N fusion, yeast selection) (log enrichment); library NNK2; higher = more nucleation; inactive = no reads after selection
Please provide measured amyloid nucleation score for the entries that follow.
API doc: respond with a numeric literal and nothing else, no unit.

Record request: amyloid nucleation score value, item QLRGLVL
0.704

And for SWFVRLGTRNWYTLRRVVIG ?
-0.315

And for TFSVSSYRNLP ?
-0.06

And for RLHGGHLRRM ?
0.902

And for DHSEYSVITKFVLHRSCSQG ?
8.45

And for GLNVFCEKYISFKVMGIVER ?
5.24

And for SRWLSQSPDHSWGGQTYGMS ?
-0.023

And for CVKDQSSRRRWLIYWAHSLS ?
-0.145

And for YESGVSCFFVYVMNTYHIWG ?
5.17

And for VSTRILSCSNEFCYIIGAMV ?
2.59

And for SYVVVAPLCQCTTVSGRRGI ?
1.04

And for SRLCFWSVGFNKTQQVEPVR ?
-1.33

And for RSNSMMLCFASDIVRFYHMG ?
2.71

And for CTLLFTLSYSVS ?
4.25

And for IRQAWLYS ?
0.615

And for SKNDCRVFPSDMHFWHDLVE ?
0.351

---

test: amyloid nucleation score (Sup35N fusion, yeast selection) (log enrichment); library NNK3; higher = more nucleation; inactive = no reads after selection
value_type: amyloid nucleation score

substance=NWGVVYYISSCNGNSSHLSS measured_value=1.83
substance=RGSDIMAFAVDYTDNKSECS measured_value=inactive
substance=ICAVFWDCMISRSCDTALYS measured_value=inactive
substance=GFPPCSTRTIQLTWHSSNV measured_value=0.37
substance=RYWWNYWLLPRWFFVQLGSC measured_value=inactive
substance=PELVFPMLADRPVRAQKLPC measured_value=inactive

Record request: amyloid nucleation score value, item MKVEVYPSTVFMRYRVNWVI
inactive

And for LCGLSDSYCRA ?
inactive

And for CRVAMILSCFTMVFCSQAAT ?
1.5

And for VLNDFMCDFGSWPRVIVIRT ?
inactive

And for QCSIFIIC ?
2.41

And for NYGYRRPVMILPVHR ?
inactive

---

test: amyloid nucleation score (Sup35N fusion, yeast selection) (log enrichment); library NNK2; higher = more nucleation; inactive = no reads after selection
amyloid nucleation score of -0.4 or higher: Fulfilled. Under -0.4: Not fulfilled.

Does the sequence SFHSCNVS have recorded amyloid nucleation score that is -0.4 or more?
Fulfilled

And for PHVRTFRRFRWMY ?
Fulfilled

And for GNNGRFSWVY ?
Fulfilled

And for LYLGMDYWWDV ?
Fulfilled

And for QFFRPRDVRERAEWNLAKLV ?
Fulfilled

And for SGLTSIWQPTRTRMMSPSRR ?
Fulfilled

And for DNCRYVKRSSYSRVCAHYKS ?
Not fulfilled

And for LRSRVSSSLSYKLLFRTNVL ?
Fulfilled

And for HFKSDSSSSEMTRLVEPGGV ?
Fulfilled

And for SCMLFEAAYPRVYMYWSRRF ?
Not fulfilled

And for IDAELLGWFFPEDGFHFSAV ?
Not fulfilled

And for SRGLSGNSSASLEKLNRL ?
Fulfilled

And for ATHKVWFESGYAHTPLVYLF ?
Not fulfilled

And for IRRTDREQ ?
Fulfilled

And for HGGGVLHIFLNIAPLVS ?
Fulfilled

And for NICSTGPLFWNFLFVV ?
Fulfilled

Every entry's value here was drawn from the supplement of paper PMC12042874.
